Target: LIMK1KD (Homo sapiens)
Construct: His6 (N, cleaved yes); made in house; host or cells: baculovirus; Sf9 for virus, TriEx insect cells for expression
Sequence (P53667 330-637): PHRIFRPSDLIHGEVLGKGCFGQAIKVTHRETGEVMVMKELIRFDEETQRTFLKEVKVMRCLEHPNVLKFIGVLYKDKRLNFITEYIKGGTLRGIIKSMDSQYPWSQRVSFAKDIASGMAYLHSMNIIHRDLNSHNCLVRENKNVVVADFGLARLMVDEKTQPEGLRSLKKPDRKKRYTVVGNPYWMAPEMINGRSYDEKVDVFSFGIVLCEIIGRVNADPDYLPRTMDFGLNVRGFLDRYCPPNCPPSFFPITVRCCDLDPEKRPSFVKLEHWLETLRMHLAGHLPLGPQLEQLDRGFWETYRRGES
Assay: Differential (dynamic) scanning fluorimetry (DSF) assay, LIMK1KD
Format: binding
Settings: 2 µM LIMK1KD, compound 10 µM, single shot
reported.property: TM Shift LIMK1 (K)

Reference set, count: 5
[
  {
    "compound": "COc1ncc(-c2ccc3nccc(-c4ccnnc4)c3c2)cc1NS(=O)(=O)c1ccc(F)cc1F [GSK2126458 (GSK458)]",
    "TM Shift LIMK1 (K)": 1.2
  },
  {
    "compound": "CC(C)(C)c1cc(C=C(C#N)C#N)cc(Br)c1O [AG-1024]",
    "TM Shift LIMK1 (K)": 2.5
  },
  {
    "compound": "Cc1nc(NC(=O)N2CCC[C@H]2C(N)=O)sc1-c1csc(C(C)(C)C)n1 [A66]",
    "TM Shift LIMK1 (K)": 0.0
  },
  {
    "compound": "c1cncc(CN2CCC(n3ncc4c(N5CCOCC5)nc(-c5ccc6[nH]ccc6c5)nc43)CC2)c1 [WAY-600]",
    "TM Shift LIMK1 (K)": -0.1
  },
  {
    "compound": "N#CCNC(=O)c1ccc(-c2ccnc(Nc3ccc(N4CCOCC4)cc3)n2)cc1 [CYT387]",
    "TM Shift LIMK1 (K)": 1.2
  }
]

a = Cn1c(=O)n(-c2ccc(C(C)(C)C#N)cc2)c2c3cc(-c4cnc5ccccc5c4)ccc3ncc21 [Dactolisib]
b = CC(C)NC[C@@H](C(=O)N1CCN(c2ncnc3c2[C@H](C)C[C@H]3O)CC1)c1ccc(Cl)cc1 [GDC-0068]
QUERY: Lower TM Shift LIMK1 (K): a or b ? Reply briefly: the label of your chosen item.
RESULT: b

###

Target: LIMK2KD (Homo sapiens, UniProt P53671)
Construct: The cDNA coding for LIMK2 residues 330 to 632 was PCR amplified; His6 (N, cleaved yes); made in house; host or cells: baculovirus; Sf9 for virus, TriEx insect cells for expression
Sequence (P53671 330-632): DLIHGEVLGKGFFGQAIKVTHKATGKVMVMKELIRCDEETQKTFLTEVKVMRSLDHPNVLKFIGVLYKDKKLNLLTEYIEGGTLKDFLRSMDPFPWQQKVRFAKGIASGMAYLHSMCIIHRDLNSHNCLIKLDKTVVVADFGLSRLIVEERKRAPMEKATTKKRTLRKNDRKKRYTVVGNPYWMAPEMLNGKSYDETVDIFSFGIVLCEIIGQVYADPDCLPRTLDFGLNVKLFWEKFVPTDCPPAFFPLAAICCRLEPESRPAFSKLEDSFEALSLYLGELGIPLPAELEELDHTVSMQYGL
Test: Differential (dynamic) scanning fluorimetry (DSF) assay, LIMK2KD
Assay type: binding
Details: read-out: TM Shift LIMK2 (K), LIMK2KD, compound 10 µM, single shot
Structures can show the parent of a compound that is named as a salt.
reported.property: ΔTm at 10 µM (°C)

Answered examples (3):
[
  {
    "molecule": "C[C@]12O[C@H](C[C@]1(O)CO)n1c3ccccc3c3c4c(c5c6ccccc6n2c5c31)CNC4=O",
    "experimental.target": "LIMK2KD (Homo sapiens, UniProt P53671)",
    "ΔTm at 10 µM (°C)": 2
  },
  {
    "molecule": "COc1cc2ncnc(Nc3ccc(F)c(Cl)c3)c2cc1OCCCN1CCOCC1 [Gefitinib (ZD1839), Gefitinib]",
    "experimental.target": "LIMK2KD (Homo sapiens, UniProt P53671)",
    "ΔTm at 10 µM (°C)": 0.5
  },
  {
    "molecule": "CNC(=O)c1cc(Oc2ccc(NC(=O)Nc3ccc(Cl)c(C(F)(F)F)c3)cc2)ccn1 [Sorafenib Tosylate]",
    "experimental.target": "LIMK2KD (Homo sapiens, UniProt P53671)",
    "ΔTm at 10 µM (°C)": 1.5
  }
]

A = CCCCCCCCc1ccc(CCC(N)(CO)CO)cc1 [Fingolimod (FTY720) HCl, Fingolimod]
B = Cc1nc(Nc2ncc(C(=O)Nc3c(C)cccc3Cl)s2)cc(N2CCN(CCO)CC2)n1
QUERY: Given A and B , report the one with the higher recorded ΔTm at 10 µM. Your answer should be the label of the entry you select.
RESULT: B
(B: 1.7 °C, A: 1.1 °C)

###

Target: LIMK2KD (Homo sapiens)
Construct: The cDNA coding for LIMK2 residues 330 to 632 was PCR amplified; His6 (N, cleaved yes); made in house; host or cells: baculovirus; Sf9 for virus, TriEx insect cells for expression
Experiment: Differential (dynamic) scanning fluorimetry (DSF) assay, LIMK2KD
Assay type: binding
Conditions: LIMK2KD, compound 10 µM, single shot; read-out: TM Shift LIMK2 (K)
reported.property: ΔTm at 10 µM (°C)

Please review the following examples before continuing.
[
  {
    "compound": "COc1cc(F)c(F)c(Nc2ccc(I)cc2F)c1NS(=O)(=O)C1(C[C@H](O)CO)CC1 [Refametinib]",
    "readout.number": 1.1
  },
  {
    "compound": "Cn1cc(C2=C(c3cn(C4CCN(Cc5ccccn5)CC4)c4ccccc34)C(=O)NC2=O)c2ccccc21 [Enzastaurin (LY317615), Enzastaurin]",
    "readout.number": 1.6
  },
  {
    "compound": "CNC(=O)c1cc(Oc2ccc(NC(=O)Nc3cc(C(C)(C)C)nn3-c3ccc4ncccc4c3)c(F)c2)ccn1 [DCC-2036 (Rebastinib), Rebastinib]",
    "readout.number": 4.8
  },
  {
    "compound": "C=CC(=O)N1CCC[C@@H](n2nc(-c3ccc(Oc4ccccc4)cc3)c3c(N)ncnc32)C1 [Ibrutinib (PCI-32765), Ibrutinib]",
    "readout.number": 0.7
  }
]

P = CC1(COc2ccc3c(c2)ncn3-c2ccc3cccc(N4CCC(N)CC4)c3n2)COC1 [Crenolanib (CP-868596), Crenolanib]
Q = CCCNC(=O)Nc1ccc(Oc2ncnc3cc(OC)c(OC)cc23)cc1Cl [KRN 633]
R = CCCS(=O)(=O)Nc1ccc(F)c(C(=O)c2c[nH]c3ncc(-c4ccc(Cl)cc4)cc23)c1F [Vemurafenib (PLX4032, RG7204), Vemurafenib]
QUERY: Sort these compounds on ΔTm at 10 µM so the largest reading comes first. Put the labels in the order asked and list them.
RESULT: R, Q, P

###

Biological target: LIMK2KD (Homo sapiens)
Construct: The cDNA coding for LIMK2 residues 330 to 632 was PCR amplified; His6 (N, cleaved yes); made in house; host or cells: baculovirus; Sf9 for virus, TriEx insect cells for expression
Assay: Differential (dynamic) scanning fluorimetry (DSF) assay, LIMK2KD
Type: binding
Conditions: LIMK2KD, compound 10 µM, single shot; read-out: TM Shift LIMK2 (K)
reported.property: ΔTm at 10 µM (°C)

Here are 3 compounds together with their reported answers.
[
  {
    "compound": "COc1cc2nccc(Oc3ccc(NC(=O)Nc4cc(C)on4)c(Cl)c3)c2cc1OC [Tivozanib (AV-951), Tivozanib]",
    "ΔTm at 10 µM / °C": 1.5
  },
  {
    "compound": "C[C@H]1[C@H](C)CC[C@]2(C(=O)O)CC[C@]3(C)C(=CC[C@@H]4[C@@]5(C)C[C@@H](O)[C@H](O)[C@@](C)(CO)[C@@H]5CC[C@]43C)[C@H]12 [Asiatic Acid]",
    "ΔTm at 10 µM / °C": 1.7
  },
  {
    "compound": "Cc1ccc(C(=O)Nc2ccc(CN3CCN(C)CC3)c(C(F)(F)F)c2)cc1C#Cc1cnc2cccnn12 [Ponatinib (AP24534), Ponatinib]",
    "ΔTm at 10 µM / °C": 4.6
  }
]

I = O=C1Nc2ccccc2/C1=C1/Nc2ccccc2C1=O [Indirubin]
II = COc1cc2c(Oc3ccc(NC(=O)C4(C(=O)Nc5ccc(F)cc5)CC4)cc3F)ccnc2cc1OCCCN1CCOCC1 [Foretinib (GSK1363089), Foretinib]
QUERY: Decide: I or II , by lowest recorded ΔTm at 10 µM. // caller expects the label of the chosen entry
RESULT: II
(II: -0.4 °C, I: 2.6 °C)

P = N#Cc1ccc2[nH]c(O)c(-c3ccc(CN4CCOCC4)cn3)c2c1 [AZD1080]
Q = CC(C)(C)c1nc(-c2cccc(NS(=O)(=O)c3c(F)cccc3F)c2F)c(-c2ccnc(N)n2)s1 [Dabrafenib (GSK2118436), Dabrafenib]
QUERY: Quick check, higher ΔTm at 10 µM between P and Q ? Answer by stating the label of the chosen item.
RESULT: Q
(Q: 11.1 °C, P: 2.3 °C)

a = COc1cccc2cc(-c3nc([C@H]4CC[C@H](C(=O)O)CC4)n4ncnc(N)c34)[nH]c12 [OSI-027]
b = O=c1cc(N2CCOCC2)oc2c(-c3ccccc3)cccc12 [LY294002]
QUERY: When their ΔTm at 10 µM values are compared, which is larger, a or b ? Record your answer as the label of the chosen record.
RESULT: b
(b: 0.4 °C, a: 0.2 °C)

###

Target: LIMK2KD (Homo sapiens, UniProt P53671)
Construct: The cDNA coding for LIMK2 residues 330 to 632 was PCR amplified; His6 (N, cleaved yes); made in house; host or cells: baculovirus; Sf9 for virus, TriEx insect cells for expression
Experiment: Differential (dynamic) scanning fluorimetry (DSF) assay, LIMK2KD
Assay type: binding
Conditions: LIMK2KD, compound 10 µM, single shot; read-out: TM Shift LIMK2 (K)
reported.property: ΔTm at 10 µM (°C)

The following molecules have reported results that may help.
[
  {
    "molecule": "C[S+]([O-])c1ccc(-c2nc(-c3ccncc3)c(-c3ccc(F)cc3)[nH]2)cc1 (stereo not shown)",
    "unit.name": "°C",
    "ΔTm at 10 µM": 3.3
  },
  {
    "molecule": "Cc1ccc(NC(=O)c2ccc(CN3CCN(C)CC3)cc2)cc1Nc1nc(-c2cccnc2)cs1",
    "unit.name": "°C",
    "ΔTm at 10 µM": 0
  },
  {
    "molecule": "CCS(=O)(=O)Nc1ccc2c(c1)/C(=C(/Nc1ccc(CN3CCCCC3)cc1)c1ccccc1)C(=O)N2",
    "unit.name": "°C",
    "ΔTm at 10 µM": 1.2
  },
  {
    "molecule": "CC(=O)Nc1cccc(-n2c(=O)n(C3CC3)c(=O)c3c(Nc4ccc(I)cc4F)n(C)c(=O)c(C)c32)c1",
    "unit.name": "°C",
    "ΔTm at 10 µM": 0
  },
  {
    "molecule": "CNC(=O)c1ccc(C)c(-n2c(C)cc(OCc3ccc(F)cc3F)c(Br)c2=O)c1",
    "unit.name": "°C",
    "ΔTm at 10 µM": 0.1
  }
]

a = Oc1cc(O)cc(/C=C/c2ccc(O)c(O)c2)c1
b = CC(C)(C)c1cc(/C=C(\C#N)C(N)=S)cc(C(C)(C)C)c1O
c = FC(F)c1nc2ccccc2n1-c1nc(N2CCOCC2)nc(N2CCOCC2)n1
d = O=C(NCCCNc1nc(Nc2cccc(NC(=O)N3CCCC3)c2)ncc1I)c1cccs1
e = Cc1cc(Nc2nc(N[C@@H](C)c3ccc(F)cc3)c(C#N)cc2F)[nH]n1
QUERY: Highest ΔTm at 10 µM first, then in falling order down to the smallest. Write the labels, ordered according to the request.
RESULT: d, b, a, e, c

P = CNC(=O)c1cc(Oc2ccc(NC(=O)Nc3ccc(Cl)c(C(F)(F)F)c3)c(F)c2)ccn1
Q = C[C@@H](Oc1ccc2[nH]nc(/C=C/c3cnn(CCO)c3)c2c1)c1c(Cl)cncc1Cl
QUERY: Recorded ΔTm at 10 µM values differ for P and Q ; which one is higher? Your answer should be the label of the entry you select.
RESULT: P
(P: 0.7 °C, Q: 0.1 °C)
